test system: Brugia malayi; test: WHO-TDR: Lymphatic Filariasis; type: functional; design: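 tested at 10 µM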
% Inhibition overview
Please state the figure in %; there is no need to write the unit.

Cc1noc(C)c1CCc1nc(-c2ccc(Cl)cc2)no1: 0

Looking up `Cn1nccc1C(=O)Nc1nc2c(s1)CSc1ccccc1-2` , I see its % Inhibition listed as 0

Looking up CS(=O)(=O)NCC(c1ccco1)S(=O)(=O)c1ccc(Cl)cc1 (configuration not stated) , I see its % Inhibition listed as 33.33

Looking up `CN(c1ccccc1)c1nnc(-c2ccc(NC(=O)Cc3cccs3)cc2)s1` , I see its % Inhibition listed as 0

Looking up `NC(=O)CSc1nc(-c2ccccc2)c(NC(=O)c2cc3ccccc3o2)s1` , I see its % Inhibition listed as 33.33

Looking up `CC(=O)N1CCc2ccc(NC(=O)c3ccc(F)c(F)c3)cc21` , I see its % Inhibition listed as 0

###

tested on: Plasmodium falciparum K1; assay: WHO-TDR: Malaria; assay type: functional, organism-based, Homo sapiens; settings: Erythrocyte
IC50 overview
Please state the figure in mg/L; there is no need to write the unit.

COc1cccc(NC(=O)NCCNc2ccc(Nc3cccc(C)n3)nn2)c1: 4.98
CCN(c1ccccc1)S(=O)(=O)c1ccc(C(=O)Nc2sc3c(c2C(=O)NC)CCCC3)cc1: 7.35
O=C(CSc1nnc(NC(=O)c2ccccc2C(F)(F)F)s1)Nc1ccc2c(c1)OCO2: 0.653

Looking up `CN(C)CCN(C(=O)CCSc1ccccc1)c1nc2c(Cl)cccc2s1` , I see its IC50 listed as 3.39

Looking up `CCN(CC)CCN(C(=O)Cc1ccc2c(c1)OCO2)c1nc2c(C)cc(C)cc2s1` , I see its IC50 listed as 4.32

Looking up `CCOc1ccc(C(=O)Nc2ccc(Nc3nc(C)cc(N(CC)CC)n3)cc2)cc1OCC` , I see its IC50 listed as 0.51

###

experiment: WHO-TDR: Cytotoxicity; type: toxicity, cell-based; conditions: human, MRC5 cells
measured_property: IC50 (µg/mL)
Please state the figure in µg/mL; there is no need to write the unit.

Looking up `CC(C)N1CCc2c(sc(NC(=O)COc3ccc(Cl)cc3Cl)c2C(N)=O)C1` , I see its IC50 listed as 3.18

Looking up `COc1cc(CSc2nc(CC(=O)NCc3ccco3)cs2)cc(OC)c1` , I see its IC50 listed as 7.55

Looking up `CCOC(=O)N1CCc2c(sc(NC(=O)c3ccco3)c2-c2nc3ccccc3s2)C1` , I see its IC50 listed as 4.51

Looking up `Cc1cccc2sc(N(CCCN(C)C)C(=O)c3ccccc3Br)nc12` , I see its IC50 listed as 3.97

Looking up `Cc1cc(=O)[nH]c(-n2nc(C)cc2NC(=O)c2ccc(S(=O)(=O)N3CCCCC3)cc2)n1` , I see its IC50 listed as 0.445

###

tested on: Trypanosoma brucei brucei; assay: WHO-TDR: Human African Trypanosomiasis (HAT); assay type: functional, organism-based; settings: Squib-427
Sorting guide: entries reporting IC50 beneath 4 µg/mL go in the satisfied pile, the rest go in the not satisfied pile.

Worked cases, answers included:
COc1ccc(-c2nnc(NC(=O)c3cccc(C(F)(F)F)c3)o2)cc1: not satisfied
O=S(=O)(NCCNc1ccc(Nc2ccccn2)nn1)c1ccccc1C(F)(F)F: not satisfied
O=C(COc1ccc(Cl)cc1Cl)N(Cc1ccccn1)c1nc2ccccc2s1: not satisfied
O=C(Cc1ccc(F)cc1)Nc1nc(-c2ccccn2)cs1: satisfied

Q. IC50 under 4 µg/mL? Item: `COc1ccc(-c2nc(NC(=O)Cc3ccc(SC)cc3)sc2C)cc1`
A. satisfied

Q. IC50 under 4 µg/mL? Item: `C=CCn1/c(=N/C(=O)c2ccccc2I)sc2cc(S(C)(=O)=O)ccc21`
A. not satisfied

Q. IC50 under 4 µg/mL? Item: CCOC(=O)c1sc(NC(=O)C(C)Sc2ncnc3ccccc23)c(C(=O)OCC)c1C (stereo not given)
A. not satisfied

Q. IC50 under 4 µg/mL? Item: `CN(C)c1ccc(NC(=O)Cc2csc(SCc3ccncc3)n2)cc1`
A. not satisfied

Values compiled from ChEMBL document CHEMBL2093137.
